The measurements presented in this section are drawn from patent US20260207767A1.

In this section, each of the binders is paired with its reported pEC50.
Molecular target: T1, recombinant hPD-1 (construct not stated) (human, UniProt Q15116 25-167, limits assumed)
T1 construct: also called huPD-1; Human PD1
T1 sequence (Q15116 25-167 limits assumed): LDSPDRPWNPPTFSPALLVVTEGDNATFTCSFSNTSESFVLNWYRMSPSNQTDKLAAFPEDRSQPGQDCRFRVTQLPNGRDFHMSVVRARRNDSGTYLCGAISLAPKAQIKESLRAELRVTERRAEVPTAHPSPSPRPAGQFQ
Assay: ELISA
Conceptually, pEC50 converts a concentration in mol/L into minus its log10.

| Binder | pEC50 |
| --- | --- |
| XVT458-z2-m1 (antibody, V domains shown, IgG format; also called z2-XVT458-m1; z2_XVT458m1) VH: QVQLVQSGAEVKKPGASVKVSCKASGYTFTNFYIHWVRQAPGQGLEWMGSIYPNYGFTAYNQKFKDRVTMTVDTSTSTAYMELRSLRSDDTAVYYCARGYSYAMDYWGQGTTVTVSS VL: DIQMTQSPSSVSASVGDRVTITCSASQGIWGDLNWYQQKPGKAPKLLIYHTSQLHSDVPSRFSGSGSGTDFTLTISSLQPEDFATYYCQGYSKDLLTFGGGTKLEIK | 10.08 |
| XVT458-z2-m2 (antibody, V domains shown, IgG format; also called z2_XVT458m2) VH: QVQLVQSGAEVKKPGASVKVSCKASGYTFTNFYIHWVRQAPGQGLEWMGRIYPNYGFTAYNQKFKDRVTMTVDTSTSTAYMELRSLRSDDTAVYYCARGYSYAMDYWGQGTTVTVSS VL: DIQMTQSPSSVSASVGDRVTITCSASQGIYGDLNWYQQKPGKAPKLLIYHTSSLHSGVPSRFSGSGSGTDFTLTISSLQPEDFATYYCQAYSKDLLTFGGGTKLEIK | 10.12 |
| z2-XVT458 (antibody, IgG1, V domains shown, full hIgG1; also called XVT458-z2; GH + T071V) VH: QVQLVQSGAEVKKPGASVKVSCKASGYTFTNFYIHWVRQAPGQGLEWMGSIYPNYGDTAYNQKFKDRVTMTVDTSTSTAYMELRSLRSDDTAVYYCARGYSYAMDYWGQGTTVTVSS VL: DIQMTQSPSSVSASVGDRVTITCSASQGISGDLNWYQQKPGKAPKLLIYHTSSLHSGVPSRFSGSGSGTDFTLTISSLQPEDFATYYCQYYSKDLLTFGGGTKLEIK | 9.15 |

Measured pEC50, XVT458-z2-m4 (antibody, V domains shown, IgG format; also called z2_XVT458m4) VH: QVQLVQSGAEVKKPGASVKVSCKASGYTFTNFYIHWVRQAPGQGLEWMGRIYPNYGITAYNQKFKDRVTMTVDTSTSTAYMELRSLRSDDTAVYYCARGYSYAMDYWGQGTTVTVSS VL: DIQMTQSPSSVSASVGDRVTITCSASQGISGDLNWYQQKPGKAPKLLIYHTSSRHSGVPSRFSGSGSGTDFTLTISSLQPEDFATYYCQGYSKDLLTFGGGTKLEIK : 10.10
